- targetSystem: S. pyogenes SKKanGAS, kanamycin survival, BacTiterGlo, 6 h
- methodSummary: S. pyogenes SKKanGAS kanamycin growth inhibitors – SKKanGAS strain, luminescence, dose confirmation, streptokinase promoter inhibitor project, dose response (AID 1902);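 also: lower survival reflects blocked streptokinase promoter driving kanamycin resistance gene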
Activity calls are given as the source filed them.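 The calls were made as follows: active = EC50 no more than a set limit of log units above the highest dose; inactive = the rest.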
Below, each entry is listed with its recorded EC50.

{"compound": "O=C(Nc1nnc(C2=COCCO2)o1)c1cccc(C(F)(F)F)c1", "EC50": "1730 nM"}
{"compound": "CCOc1ccc(-c2csc(/C(C#N)=C\\c3ccc(O)c([N+](=O)[O-])c3)n2)cc1", "EC50": "1990 nM"}
{"compound": "Nc1nc(-c2ccccc2)c(N=Nc2cccc3ccccc23)s1", "EC50": "4000 nM"}
{"compound": "COc1cc(/C=N/Nc2ncnc3sc4c(c23)CCC4)ccc1O", "EC50": "2110 nM"}
{"compound": "COc1ccc2cc3c(N)nn(C(=O)C4CCC(C(C)(C)C)CC4)c3nc2c1 (centres undefined)", "EC50": "1950 nM"}
{"compound": "Cc1ccc(N=Nc2ccc(O)c3ncccc23)cc1", "EC50": "98 nM"}
{"compound": "Cc1cc(N/N=C/c2ccc(O)c(C)c2O)nc(-c2ccccc2O)n1", "EC50": "3090 nM"}
{"compound": "Cc1c2ccncc2c(C)c2c1[nH]c1ccccc12", "EC50": "3020 nM"}
{"compound": "Cn1c2ccccc2c(=O)c2c(=O)n(-c3ccc(F)cc3)c(-c3cccs3)nc21", "EC50": "4760 nM"}
{"compound": "Cc1ccc(NC(=O)c2nc[nH]c2C(=O)N[C@@H](C)c2ccccc2)cc1", "EC50": "1130 nM"}
{"compound": "CC1C/C(=N\\NC(=S)NCc2ccccc2)CC(C)(C)C1 (centres undefined)", "EC50": "3960 nM"}
{"compound": "CCOc1cccc(/C=N/NC(=S)Nc2ccccc2[N+](=O)[O-])c1O", "EC50": "95 nM"}
{"compound": "Cc1ccccc1OCCCc1c(C)n[nH]c1C", "EC50": "1090 nM"}
{"compound": "COc1ccc2nc(C3CCCCC3)nc(C3CCCCC3)c2c1", "EC50": "2660 nM"}
{"compound": "CCCCCC/C(=N/O)c1ccccn1", "EC50": "15400 nM"}
{"compound": "CC(C)CC(=O)Nc1ccc(C(=O)NNC(=S)NC(=O)C2CCCCC2)cc1", "EC50": "1000 nM"}
{"compound": "O=[N+]([O-])c1ccc(O)c(/C=N/Nc2ncnc3c2cnn3-c2ccccc2)c1", "EC50": "742 nM"}
{"compound": "CCN(CC)c1ccc(-n2cc3c(=O)n(C)c(=O)n(C)c3c2)cc1", "EC50": "3430 nM"}
{"compound": "Cc1ccc(C(=O)OC2OC(=O)C(Cl)=C2N2CCOCC2)cc1 (centres undefined)", "EC50": "884 nM"}
{"compound": "CCCc1nc2ccccc2c(=O)n1/N=C/c1c(C)[nH]n(-c2ccc(C)cc2)c1=O", "EC50": "1230 nM"}
{"compound": "COC(=O)c1cc(-c2cccc(OC)c2)c2c(=O)[nH]c(=O)n(C)c2n1", "EC50": "4310 nM"}
{"compound": "O=C(/C=C/c1ccc([N+](=O)[O-])o1)NNC(=O)c1ccc(F)cc1", "EC50": "1800 nM"}
{"compound": "O=C(Cc1ccccc1)N/N=C/c1cc(Br)cc(Cl)c1O", "EC50": "1520 nM"}
{"compound": "O=C1c2ccccc2C2=Nc3ccccc3SC(c3ccccc3F)C12 (centres undefined)", "EC50": "3000 nM"}
{"compound": "O=C(Nc1cccc(C(F)(F)F)c1)c1cc2c(=O)c3ccccc3oc2nc1C(F)(F)F", "EC50": "7270 nM"}
{"compound": "COc1ccc2oc(C(=O)Nc3nc4ccccc4[nH]3)c(C)c2c1", "EC50": "5620 nM"}
{"compound": "CCOC(=O)c1cnc(-n2cc(C)cn2)nc1Nc1ccccc1OCC", "EC50": "4180 nM"}
{"compound": "O=C(/C=C/c1ccc(Br)cc1)NC(=S)NNC(=O)c1ccco1", "EC50": "391 nM"}
{"compound": "CCCC(O)(c1ccc(Br)cc1)C(CN1CCOCC1)c1ccc(Cl)cc1 (centres undefined)", "EC50": "10100 nM"}
{"compound": "COc1ccccc1N=Nc1nc(-c2ccccc2)c(-c2ccccc2)[nH]1", "EC50": "1390 nM"}
{"compound": "CCc1nnc(NC(=O)c2sc3nc4cc(C)ccc4cc3c2N)s1", "EC50": "3770 nM"}
{"compound": "CCOc1ccccc1NC(=O)NCc1ccc2c(c1)OCO2", "EC50": "> 15000 nM (inactive)"}
{"compound": "Oc1c(C(Nc2ccccn2)c2ccccn2)ccc2cccnc12 (centres undefined)", "EC50": "10700 nM"}
{"compound": "COc1cc(/C=N/NC(=O)c2nnn(-c3nonc3N)c2C(C)C)ccc1OCc1ccc(F)cc1", "EC50": "11300 nM"}
{"compound": "COc1cccc(/C=N/Nc2nc(Nc3ccccc3)nc(-n3nc(C)cc3C)n2)c1O", "EC50": "1970 nM"}
{"compound": "CCCC(=O)NC(c1ccc(Cl)cc1)c1ccc2cccnc2c1O (centres undefined)", "EC50": "7200 nM"}
{"compound": "CC(=O)NC(c1ccc(Cl)cc1Cl)c1ccc2cccnc2c1O (centres undefined)", "EC50": "4200 nM"}
{"compound": "CCCCNc1c2c3c(cccc3n(C)c1=O)C(=O)c1ccccc1-2", "EC50": "6260 nM"}
{"compound": "CCC(=O)NC(c1ccc(C)cc1)c1cc([N+](=O)[O-])c2cccnc2c1O (centres undefined)", "EC50": "1310 nM"}
